Biological target: T1, PUF4 RNA-binding domain (Saccharomyces cerevisiae, UniProt P25339 537-888)
T1 sequence: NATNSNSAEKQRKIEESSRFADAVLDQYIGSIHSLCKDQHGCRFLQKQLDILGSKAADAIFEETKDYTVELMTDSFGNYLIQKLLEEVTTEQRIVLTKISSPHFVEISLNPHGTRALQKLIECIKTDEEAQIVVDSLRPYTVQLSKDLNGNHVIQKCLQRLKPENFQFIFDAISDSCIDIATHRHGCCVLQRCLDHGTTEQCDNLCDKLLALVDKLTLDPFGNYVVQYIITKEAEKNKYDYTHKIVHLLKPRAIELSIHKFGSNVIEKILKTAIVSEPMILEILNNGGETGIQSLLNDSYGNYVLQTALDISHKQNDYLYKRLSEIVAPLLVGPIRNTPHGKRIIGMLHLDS
Assay: Mg; RNA-MaP; 20 mM Na-HEPES pH 7.4, 30 mM KOAc, 0.75 mM MgCl2, 0.1% Tween-20, 5% glycerol, 0.1 mg/mL BSA, 2 mM DTT; 25 C; 0.0125-409.6 nM protein
Conditions: tags: N-His6-TEV cleaved; C-SNAP kept, Cy3B-labelled; label: tethered on chip by stalled RNA polymerase
pKd: −log10 of the molar value.
The binders listed here are annotated with their pKd.

- binder: "UCUCUUUGUAUUAUGCUCUCUU (ssRNA) [Ib_S1_P5E.1_K5.1_C5.1_H5.1_A5.1_F5.1_[T9G]_[A10C]_T5.1]"
  pKd: 7.82
- binder: "Id_ii_S2_P5E.3_K5.2_C5.2_[T-1C]_H5.2_A5.1_F5.1_T5.2_[T11A] (ssRNA) RNA: UUUGAUUAAUAUGAUAUCGUUCUUUCUCCUAUAUUAUUAAAUUCUUUCUCGAUAUCAUAUUAAUCUUU"
  pKd: 6.82
- binder: "Ic_S4_P4E.1_K4.1_C4.1_H4.1_A4.1_[T5C]_[T7G]_F4.1_[T8C]_[A9C]_T4.1 (ssRNA) RNA: UUUGACAACUGAUCGUUCUUUCUUGUACAGCCUUCUUUCUCGAUCAGUUGUCUUU"
  pKd: 7.05
- binder: "Ie_S2_P3E.2_K3.1_C3.2_H3.1_[+2CCCT]_A3.1_F3.1_T3.2 (ssRNA) RNA: UUUGAUUAAUAUGAUAUCGUUCUUUCUCUUGCCCUUAUAUAUAUUCUUUCUCGAUAUCAUAUUAAUCUUU"
  pKd: 7.17
- binder: "UCUCUUACUGUAUUAUUAUGUCUCUU (ssRNA) [Id_ii_S1_P5E.2_K5.1_C5.2_[C-2A]_[T-1C]_H5.1_A5.1_F5.1_T5.2_[A12G]]"
  pKd: 8.06
- binder: "Ie_S2_P3E.2_K3.1_C3.2_H3.1_[+3CCC]_A3.1_F3.1_T3.2 (ssRNA) RNA: UUUGAUUAAUAUGAUAUCGUUCUUUCUCUUGUCCCAUAUAUAUUCUUUCUCGAUAUCAUAUUAAUCUUU"
  pKd: 7.87
- binder: "Id_ii_S2_P5E.3_K5.2_C5.2_[C-2T]_H5.2_A5.1_F5.1_T5.2_[A12T] (ssRNA) RNA: UUUGAUUAAUAUGAUAUCGUUCUUUCUUUUAUAUUAUUAUUUUCUUUCUCGAUAUCAUAUUAAUCUUU"
  pKd: 6.89
- binder: "UCUCUUACUGUAUAUACCUCUCUU (ssRNA) [Id_ii_S1_P3E.2_K3.1_C3.2_[C-2A]_[T-1C]_H3.1_A3.1_F3.1_T3.2_[T9C]_[A10C]]"
  pKd: 7.92
- binder: "UCUCUUCUUGUAUAUACUCUCUAUCUCUU (ssRNA) [Ie_S1_P3E.2_K3.1_C3.2_H3.1_A3.1_F3.1_[+8CTCTC]_T3.2]"
  pKd: 7.93
- binder: "Id_ii_S4_P4E.3_K4.2_C4.2_[C-2A]_H4.2_A4.1_F4.1_T4.2_[G10C]_[T11A] (ssRNA) RNA: UUUGACAACUGAUCGUUCUUUCUAUUAUAUAUUACAUUCUUUCUCGAUCAGUUGUCUUU"
  pKd: 7.91
- binder: "Id_ii_S2_P5E.4_K5.3_C5.2_[C-2A]_H5.3_A5.1_F5.1_T5.2_[T11C]_[A12C] (ssRNA) RNA: UUUGAUUAAUAUGAUAUCGUUCUUUCUAUACACUUAUUACCUUCUUUCUCGAUAUCAUAUUAAUCUUU"
  pKd: 6.96

src = paper PMC9352680
